Molecular target: PKR K410E (Homo sapiens, UniProt P30613, K410E)
Sequence (P30613 whole entry K410E): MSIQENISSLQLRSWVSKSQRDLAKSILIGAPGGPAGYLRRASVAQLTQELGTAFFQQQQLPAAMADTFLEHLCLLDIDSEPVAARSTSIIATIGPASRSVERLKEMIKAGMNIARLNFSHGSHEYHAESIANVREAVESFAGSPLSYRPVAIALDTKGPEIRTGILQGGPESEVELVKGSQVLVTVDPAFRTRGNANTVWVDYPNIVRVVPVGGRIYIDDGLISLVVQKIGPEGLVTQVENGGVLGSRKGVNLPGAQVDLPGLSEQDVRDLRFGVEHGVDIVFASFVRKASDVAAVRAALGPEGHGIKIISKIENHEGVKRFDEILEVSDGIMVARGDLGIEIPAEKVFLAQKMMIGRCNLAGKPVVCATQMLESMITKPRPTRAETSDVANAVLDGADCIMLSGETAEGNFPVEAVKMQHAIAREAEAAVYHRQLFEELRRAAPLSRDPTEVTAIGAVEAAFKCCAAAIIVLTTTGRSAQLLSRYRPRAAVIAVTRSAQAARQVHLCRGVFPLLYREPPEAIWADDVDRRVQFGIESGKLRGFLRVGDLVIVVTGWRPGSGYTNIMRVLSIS
Assay: PKR mutant assay (K410E), AC50, LDH/NADH-coupled, absorbance at 340 nm
Assay type: biochemical
Details: Table 2; enzyme assay
AC50 by entry:

Known AC50 results, listed for orientation:
Cc1nc2c(s1)c1cnn(Cc3cccc(NC(N)=O)c3)c(=O)c1n2C [Compound 15] | > 800 nM
Cn1c2nc([S+](C)[O-])sc2c2cnn(Cc3csc(N)n3)c(=O)c21 (centres unmarked) [Compound 83] | < 300 nM
CSc1nc2c(s1)c1cnn(Cc3cccc4sc(N)nc34)c(=O)c1n2C [Compound 114] | < 300 nM
Cn1c2nc(Cc3cc[nH]n3)sc2c2cnn(Cc3cccc(C(N)=O)c3)c(=O)c21 [Compound 183] | < 300 nM
Cn1c2nc(Cc3ccccn3)sc2c2cnn(Cc3cccc4[nH]ncc34)c(=O)c21 [Compound 151] | < 300 nM
Cn1c2nc(Cc3cccc4[nH]ncc34)sc2c2cnn(Cc3cccc4[nH]ncc34)c(=O)c21 [Compound 143] | < 300 nM
Cn1c2nc(C(N)c3ccccc3)sc2c2cnn(Cc3cccc4[nH]ncc34)c(=O)c21 (centres unmarked) [Compound 136] | < 300 nM
Cc1nc2c(s1)c1cnn(Cc3ccc4[nH]ncc4c3)c(=O)c1n2C [Compound 29] | < 300 nM

For the compound Cn1c2nc(Cc3cc[nH]n3)sc2c2cnn(Cc3cccc4[nH]ncc34)c(=O)c21 [Compound 81] , what AC50 is on record?
< 300 nM

Please answer likewise for Cn1c2nc(C(C)(O)c3ccccc3)sc2c2cnn(Cc3cccc4[nH]ncc34)c(=O)c21 (centres unmarked) [Compound 126]
< 300 nM

Ok, now Cn1c2nc(Cc3cncnc3)sc2c2cnn(Cc3cccc4[nH]ncc34)c(=O)c21 [Compound 153]
> 800 nM

Cool, now Cc1cccc(Cn2ncc3c4sc(C)nc4n(C)c3c2=O)n1 [Compound 17]
< 300 nM

Try this compound next: Cc1nc2c(s1)c1cnn(Cc3cccc4cn[nH]c34)c(=O)c1n2C [Compound 65]
301 to 800 nM

Input Cn1c2nc(Cc3ccc(C#N)cc3)sc2c2cnn(Cc3cccc4[nH]ncc34)c(=O)c21 [Compound 93]
> 800 nM

Again, but for COc1cccc(Cn2ncc3c4sc(Cc5ccc(C(F)(F)F)cc5)nc4n(C)c3c2=O)c1 [Compound 41]
< 300 nM

Also COc1cccc(Cc2nc3c(s2)c2cnn(Cc4cccc5[nH]ncc45)c(=O)c2n3C)n1 [Compound 169] , if possible.
< 300 nM

Also, C=Cc1nc2c(s1)c1cnn(Cc3cccc(OC)c3)c(=O)c1n2C [Compound 37] please.
> 800 nM

* * *

Molecular target: PKR K410E (Homo sapiens, UniProt P30613, K410E)
Experiment: PKR mutant assay (K410E), AC50, LDH/NADH-coupled, absorbance at 340 nm
Type: biochemical
Conditions: Table 2; enzyme assay
Listed here: items and their measured AC50.

Cn1c2nc([S+](C)[O-])sc2c2cnn(Cc3ccc4c(c3)OCCO4)c(=O)c21 (stereo not shown) | < 300 nM
Cn1c2nc(Cc3cc(C(F)(F)F)[nH]n3)sc2c2cnn(Cc3cccc4[nH]ncc34)c(=O)c21 | 301 to 800 nM
CC(c1ccccc1)c1nc2c(s1)c1cnn(Cc3cccc4c3cnn4C)c(=O)c1n2C (stereo not shown) | 301 to 800 nM

Now turn to the next molecule.
Sample Cn1c2nc(Cc3ccncc3)sc2c2cnn(Cc3cccc4[nH]ncc34)c(=O)c21 — what was its AC50?
> 800 nM
